Recorded measurements of EC50, one per entry
TARGET OR SYSTEM: human GLP1-R (Homo sapiens, UniProt P43220)
Sequence (P43220 24-463): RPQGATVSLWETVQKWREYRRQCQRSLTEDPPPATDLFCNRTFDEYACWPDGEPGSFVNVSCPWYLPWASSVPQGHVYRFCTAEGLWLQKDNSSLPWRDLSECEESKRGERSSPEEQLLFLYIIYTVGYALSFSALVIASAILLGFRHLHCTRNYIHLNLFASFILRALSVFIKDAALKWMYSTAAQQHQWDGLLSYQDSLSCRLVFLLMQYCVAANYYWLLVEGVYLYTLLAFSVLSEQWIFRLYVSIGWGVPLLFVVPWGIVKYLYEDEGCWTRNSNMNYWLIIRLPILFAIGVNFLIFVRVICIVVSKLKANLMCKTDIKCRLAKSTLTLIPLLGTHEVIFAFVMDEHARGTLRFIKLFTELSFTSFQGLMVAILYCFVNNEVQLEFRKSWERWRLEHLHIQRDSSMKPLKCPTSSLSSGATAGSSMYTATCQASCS
EXPERIMENTAL PROTOCOL: GLP1-R internalization assay in HEK293 cells
Format: cell-based
CONDITION NOTES: HEK293 cells expressing SNAP-GLP-1R; read-out: GLP1R Internalization EC50
Starred links: 1 amine or outer side, 2 acyl side, 3 side chain; linkers in the order of their positions; H or OH if unused. Non-standard residues stand in square brackets, D forms with d. Groups on a side chain read outwards from the residue. No end group written: not given here. *: point of attachment. C20 diacid = O=C(O)CCCCCCCCCCCCCCCCCCC(=O)*; C18 diacid = O=C(O)CCCCCCCCCCCCCCCCC(=O)*; αMePhe(2-F) = C[C@](N)(Cc1ccccc1F)C(=O)O; γGlu = O=C(O)[C@H](CCC(=O)[*:2])N[*:1]; αMe4Pal = C[C@](N)(Cc1ccncc1)C(=O)O; αMeY = C[C@](N)(Cc1ccc(O)cc1)C(=O)O; 4Pal = N[C@@H](Cc1ccncc1)C(=O)O; αMeL = CC(C)C[C@](C)(N)C(=O)O; αMeS = C[C@](N)(CO)C(=O)O; Orn = NCCC[C@H](N)C(=O)O; Dap = NC[C@H](N)C(=O)O; AEEA = NCCOCCOCC(=O)O; Aib = CC(C)(N)C(=O)O
Reply with just the number (in nM).

H-Y[Aib]QGT[αMePhe(2-F)]TSD[4Pal][αMeS]I[αMeL]LD[Orn]K([AEEA-γGlu-C18 diacid])AQ[αMe4Pal]EFI[dE][αMeY]LVEGGPSSGAPPPSGS-NH2 [Example 694]; 21.8
H-Y[Aib]QGTFTSDFSK[αMeL]LDKK([AEEA-γGlu-C20 diacid])AQ[Aib]AFIEYLLAGGPSSGEPPPGEG-NH2 [Example 31]; 91.9
H-Y[Aib]QGTFTSDFSK[αMeL]LDKK([AEEA-γGlu-C18 diacid])AQ[Aib]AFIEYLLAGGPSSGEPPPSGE-NH2 [Example 23]; 51.5
H-Y[Aib]QGTFTSD[4Pal]SR[αMeL]LDKK([AEEA-γGlu-C18 diacid])AQ[Aib]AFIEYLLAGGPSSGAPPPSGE-NH2 [Example 113]; 39.5
H-Y[Aib]QGTFTSD[4Pal]SK[αMeL]LDKK([AEEA-γGlu-C18 diacid])AQ[Aib]AFIEYLIA[Aib]GESSGAPPPSGS-NH2 [Example 285]; 59.9
H-Y[Aib]QGTFTSDFS[Orn][αMeL]LDKK([AEEA-γGlu-γGlu-C18 diacid])AQ[Aib]AFIEYLLE[Aib]GPSSGAPPPSG[4Pal]-NH2 [Example 279]; 115
H-Y[Aib]QGTFTSDFS[Dap][αMeL]LDKK([AEEA-γGlu-C18 diacid])AQ[Aib]AFIEYLLE[Aib]GPSSGAPPPSGS-NH2 [Example 134]; 67.9
H-Y[Aib]QGTFTSD[4Pal]SQ[αMeL]LDKK([AEEA-γGlu-C18 diacid])AQ[αMe4Pal]AFIEYLIE[Aib]GESSGAPPPSGE-NH2 [Example 227]; 114

Reported EC50 (human GLP1-R (Homo sapiens, UniProt P43220)) for entry H-Y[Aib]QGTFTSDFS[Orn][αMeL]LDKK([AEEA-γGlu-C18 diacid])AQ[αMe4Pal]AFIEYLIE[Aib]GESSGAPPPSGS-NH2 [Example 229] is 42.4

Reported EC50 (human GLP1-R (Homo sapiens, UniProt P43220)) for entry Y[Aib]QGTFTSDFS[Orn][αMeL]LDKK([AEEA-AEEA-γGlu-C18 diacid])AQ[Aib]AFIEYLLE[dA]GPSSG[4Pal]PPPSGS-NH2 [Example 254] is 31.9

Reported EC50 (human GLP1-R (Homo sapiens, UniProt P43220)) for entry H-Y[Aib]QGTFTSD[4Pal]S[Orn][αMeL]LDKK([AEEA-γGlu-C18 diacid])AQ[Aib]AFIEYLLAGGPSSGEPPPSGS-NH2 [Example 154] is 47.7
